meta.source: patent US7655665B2

Tested on: Aphis craccivoral
Experiment summary: Insecticidal activity against Aphis craccivoral by immersing (dipping aphids on bean sprout)
Assay type: in vivo
Experimental setup: 500 ppm; immersing (dipped 5 seconds); counted after 24 hours; 23° C.
Measure name: mortality (%) (500 ppm) Aphis
Just the number in %, nothing appended.

Looking up CSC1CCC([N+](=O)[O-])=C2N(Cc3ccc(Cl)nc3)CCN21 (centres unmarked) , I found its mortality (%) (500 ppm) Aphis recorded as 100

Noted for CCC(=O)OC1CCC([N+](=O)[O-])=C2N(Cc3cnc(Cl)s3)CCN21 (centres unmarked) : its mortality (%) (500 ppm) Aphis reads 29

Quick note, mortality (%) (500 ppm) Aphis for COC1CCC([N+](=O)[O-])=C2N(Cc3ccc(Cl)nc3)CCCN21 (centres unmarked) landed at 35

mortality (%) (500 ppm) Aphis measured on COCCOC1CCC([N+](=O)[O-])=C2N(Cc3cnc(Cl)s3)CCCN21 (centres unmarked) = 78

Data point: CC1CC(O)N2CCN(Cc3ccc(Cl)nc3)C2=C1[N+](=O)[O-] (centres unmarked) ; mortality (%) (500 ppm) Aphis = 45

Just so you know, measured mortality (%) (500 ppm) Aphis for O=C(OC1CCC([N+](=O)[O-])=C2N(Cc3ccc(Cl)nc3)CCN21)c1ccccc1 (centres unmarked) came out at 56

According to the records, this compound CCCSC1CCC([N+](=O)[O-])=C2N(Cc3ccc(Cl)nc3)CCN21 (centres unmarked) displays mortality (%) (500 ppm) Aphis of 100

Recorded mortality (%) (500 ppm) Aphis (compound CCOCCOC1CCC([N+](=O)[O-])=C2N(Cc3cnc(Cl)s3)CCCN21 (centres unmarked) ): 4

###

Tested on: Aphis craccivoral
Experiment summary: Insecticidal activity against Aphis craccivoral by immersing (dipping aphids on bean sprout)
Format: in vivo
Experimental setup: 500 ppm (500 ug/mL dilution), dipped 5 seconds, killed aphis counted after 24 hours, 23° C.
mortality (%) (500 ppm) Aphis class ranges: low class: < 20%; middle class: ≥ 20% and < 60%; high class: ≥ 60%

Ask | Band of CC(C)N=C1CCC([N+](=O)[O-])=C2N(Cc3cnc(Cl)s3)CCN12 [Compound 219] ?
Reply | middle class

Ask | Please indicate the class for CCCCCN=C1CCC([N+](=O)[O-])=C2N(Cc3ccc(Cl)nc3)CCCN12 [Compound 208] based on its mortality (%) (500 ppm) Aphis.
Reply | middle class

Ask | Returns: class label. Input: N=C1CCC([N+](=O)[O-])=C2N(Cc3cnc(Cl)s3)CCCN12 [Compound 220]
Reply | low class

Ask | Which bin, given its mortality (%) (500 ppm) Aphis, does N=C1CCC([N+](=O)[O-])=C2N(Cc3ccc(Cl)nc3)CCN12 [Compound 188] occupy?
Reply | middle class

Ask | State the class of the molecule shown: CCSC1CCC([N+](=O)[O-])=C2N(Cc3cnc(Cl)s3)CCN21 (stereo not drawn) [Compound 172]
Reply | high class

Ask | Kindly identify the class of CN=C1CCC([N+](=O)[O-])=C2N(Cc3ccc(Cl)nc3)CCN12 [Compound 189] .
Reply | high class

Ask | Sort CC(C)N=C1CCC([N+](=O)[O-])=C2N(Cc3cnc(Cl)s3)CCCN12 [Compound 227] into one of the categories.
Reply | high class

Ask | Where would CCCCSC1CCC([N+](=O)[O-])=C2N(Cc3cnc(Cl)s3)CCN21 (stereo not drawn) [Compound 178] land among the classes by reported mortality (%) (500 ppm) Aphis?
Reply | middle class

Ask | For this molecule, which bin applies? CC(C)CSC1CCC([N+](=O)[O-])=C2N(Cc3cnc(Cl)s3)CCN21 (stereo not drawn) [Compound 179]
Reply | low class

Ask | Which class is correct for the following molecule? CCN=C1CCC([N+](=O)[O-])=C2N(Cc3cnc(Cl)s3)CCN12 [Compound 214]
Reply | middle class

Ask | Looking at CCCCN=C1CCC([N+](=O)[O-])=C2N(Cc3cnc(Cl)s3)CCN12 [Compound 216] , which class would you pick?
Reply | high class

Ask | Each molecule maps to one class by mortality (%) (500 ppm) Aphis. Which class for O=C(OC1CCC([N+](=O)[O-])=C2N(Cc3cnc(Cl)s3)CCN21)c1cc(F)c(F)c([N+](=O)[O-])c1F (stereo not drawn) [Compound 169] ?
Reply | low class

Ask | Form: Item = CCN=C1CCC([N+](=O)[O-])=C2N(Cc3cnc(Cl)s3)CCCN12 [Compound 222] ; Class = ?
Reply | low class

Ask | Into which bin does this molecule go? CCCN=C1CCC([N+](=O)[O-])=C2N(Cc3cnc(Cl)s3)CCCN12 [Compound 225]
Reply | middle class

Ask | Note: place this molecule into its band. Item: O=C(OC1CCC([N+](=O)[O-])=C2N(Cc3cnc(Cl)s3)CCN21)c1cc(F)c(F)cc1F (stereo not drawn) [Compound 166]
Reply | low class

Ask | Bin this entry: CCCSC1CCC([N+](=O)[O-])=C2N(Cc3cnc(Cl)s3)CCN21 (stereo not drawn) [Compound 175]
Reply | high class

Ask | Categorize the following entry: CC(C)SC1CCC([N+](=O)[O-])=C2N(Cc3cnc(Cl)s3)CCN21 (stereo not drawn) [Compound 176]
Reply | high class

Ask | Which class holds O=[N+]([O-])C1=C2N(Cc3ccc(Cl)nc3)CCN2C(=NCCCl)CC1 [Compound 191] ?
Reply | middle class

Ask | Determine which band this molecule sits in: CN=C1CCC([N+](=O)[O-])=C2N(Cc3cnc(Cl)s3)CCCN12 [Compound 221]
Reply | low class

Ask | Would you mind sorting O=[N+]([O-])C1=C2N(Cc3cnc(Cl)s3)CCN2C(=NCCCl)CC1 [Compound 215] into the appropriate category?
Reply | low class

Ask | Note: place this molecule into its band. Item: CCCC(C)SC1CCC([N+](=O)[O-])=C2N(Cc3cnc(Cl)s3)CCN21 (stereo not drawn) [Compound 184]
Reply | low class

Ask | Consider CCCC(C)N=C1CCC([N+](=O)[O-])=C2N(Cc3ccc(Cl)nc3)CCCN12 (stereo not drawn) [Compound 210] . To which mortality (%) (500 ppm) Aphis class does it belong?
Reply | low class

Ask | Please indicate the class for O=C(OC1CCC([N+](=O)[O-])=C2N(Cc3cnc(Cl)s3)CCN21)c1cc(F)c(F)c(F)c1F (stereo not drawn) [Compound 167] based on its mortality (%) (500 ppm) Aphis.
Reply | low class

Ask | Dear colleague, I would appreciate it if you could identify the bin for N=C1CCC([N+](=O)[O-])=C2N(Cc3ccc(Cl)nc3)CCCN12 [Compound 201] and reply at your convenience.
Reply | middle class

Ask | For the record CC(C)(C)CN=C1CCC([N+](=O)[O-])=C2N(Cc3ccc(Cl)nc3)CCN12 [Compound 198] , report the class its mortality (%) (500 ppm) Aphis corresponds to.
Reply | middle class

Ask | Field: class (mortality (%) (500 ppm) Aphis) — entry: COCCSC1CCC([N+](=O)[O-])=C2N(Cc3cnc(Cl)s3)CCN21 (stereo not drawn) [Compound 186]
Reply | high class

Ask | Class label required: CCN=C1CCC([N+](=O)[O-])=C2N(Cc3ccc(Cl)nc3)CCN12 [Compound 190]
Reply | high class

Ask | Quick check: band for CN=C1CCC([N+](=O)[O-])=C2N(Cc3ccc(Cl)nc3)CCCN12 [Compound 202]
Reply | high class

Ask | Returns: class label. Input: CCCN=C1CCC([N+](=O)[O-])=C2N(Cc3ccc(Cl)nc3)CCN12 [Compound 192]
Reply | high class

Ask | For CCCCN=C1CCC([N+](=O)[O-])=C2N(Cc3ccc(Cl)nc3)CCN12 [Compound 194] , which mortality (%) (500 ppm) Aphis bin applies?
Reply | middle class

Ask | Hi there! Could you help me figure out the category for CC(C)CCSC1CCC([N+](=O)[O-])=C2N(Cc3cnc(Cl)s3)CCN21 (stereo not drawn) [Compound 183] please?
Reply | middle class

Ask | Place this molecule in its band: O=C(OC1CCC([N+](=O)[O-])=C2N(Cc3cnc(Cl)s3)CCN21)c1ccc(Cl)c(Cl)c1 (stereo not drawn) [Compound 170]
Reply | low class

Ask | Classify this molecule: CCCCN=C1CCC([N+](=O)[O-])=C2N(Cc3ccc(Cl)nc3)CCCN12 [Compound 207]
Reply | low class

Ask | Sort CN=C1CCC([N+](=O)[O-])=C2N(Cc3cnc(Cl)s3)CCN12 [Compound 213] into one of the categories.
Reply | middle class

Ask | Hello team, could you let me know which band the following molecule falls into: CCCCCSC1CCC([N+](=O)[O-])=C2N(Cc3cnc(Cl)s3)CCN21 (stereo not drawn) [Compound 182]
Reply | high class

Ask | Assign a category based on measured mortality (%) (500 ppm) Aphis for COCCN=C1CCC([N+](=O)[O-])=C2N(Cc3ccc(Cl)nc3)CCN12 [Compound 199] and give only the class name.
Reply | low class
